biological target: hemagglutinin (HA) of influenza B/Harbin/7/94 (Yamagata) (influenza B virus); assay: cell-based or functional assay
parameter_measured: VNA IC50

{"binder": "SD3056 (VHH) VHH: EVQLVESGGGLVQPGGSLRLSCAASGLSLDTYAMSWFRQAPGKEREGITCISSGHGFTYYADSVKGRFTISRDNSKNTLYLQMNSLQPEDTARYYCATESRYYCSDNWPAPQRYIYWGQGTQVTVSS", "assay_result": "> 1000 nM"}
{"binder": "SD3050 (VHH) VHH: EVQLVESGGGLVQPGGSLRLSCAASGLSLDTYAMSWFRQAPGKEREGITCISSGHGMTYYADSVKGRFTISRDNSKNTLYLQMNSLQPEDTARYYCATESRYYCSDNWPAPQRYIYWGQGTQVTVSS", "assay_result": "> 1000 nM"}
{"binder": "SD3011 (VHH) VHH: EVQLLESGGGLVQPGGSLRLSCAASGFTLENKAIGWFRQAPGKEREGVLCISKSGSWTYYADSVKGRFTISRDNSKNTVYLQMNSLRAEDTAVYYCATTTAGGGLCWDGTTFSRLASSWGQGTQVTVSS", "assay_result": "96 nM"}
{"binder": "SD3009 (VHH) VHH: EVQLLESGGGLVQPGGSLRLSCAASGFTLENKAMSWFRQAPGKEREGVLCISKSGSWTYYADSVKGRFTISRDNSKNTLYLQMNSLRAEDTAVYYCATTTAGGGLCWDGTTFSRLASSWGQGTQVTVSS", "assay_result": "516 nM"}
